FYI, the data here is from ChEMBL document CHEMBL4825712.

Attribute: selectivity ratio
# experimental_protocol: Selectivity index, ratio of CC50 for human A549 cells to IC50 for antiviral activity against Influenza A virus A/WSN/33(H1N1) infected in human A549 cells
# Type: toxicity, cell-based
# test_context: read-out: Selectivity Index
recorded_endpoint: selectivity ratio

smiles | recorded_endpoint | observed_result
Cc1cc(Cl)ccc1N(CC1CC1)S(=O)(=O)c1cc(Cl)ccc1Cl | selectivity ratio | > 10
CCN(c1ccccc1C)S(=O)(=O)c1cc(Cl)ccc1Cl | selectivity ratio | > 625
CCN(c1ccc(Cl)cc1F)S(=O)(=O)c1cc(Cl)ccc1Cl | selectivity ratio | > 33
C=CCN(c1ccccc1C)S(=O)(=O)c1cc(Cl)ccc1Cl | selectivity ratio | > 42
C=CCN(c1ccc(Cl)cc1C)S(=O)(=O)c1cc(Cl)ccc1Cl | selectivity ratio | > 135
COCCN(c1ccc(Cl)cc1C)S(=O)(=O)c1cc(Cl)ccc1Cl | selectivity ratio | > 4
CCN(c1ccc(F)cc1F)S(=O)(=O)c1cc(Cl)ccc1Cl | selectivity ratio | > 96
CCN(c1ccccc1C#N)S(=O)(=O)c1cc(Cl)ccc1Cl | selectivity ratio | > 29
CCOC(=O)Cc1ccc(N(CC)S(=O)(=O)c2cc(Cl)ccc2Cl)cc1 | selectivity ratio | > 63
CCN(c1ccc(F)cc1F)S(=O)(=O)c1cc(Cl)cc(Cl)c1 | selectivity ratio | > 33
CCN(c1ccc(F)cc1F)S(=O)(=O)c1cc(Cl)ccc1F | selectivity ratio | > 30
CCN(c1ccccc1Cl)S(=O)(=O)c1cc(Cl)ccc1Cl | selectivity ratio | > 33
CCN(c1ccc(F)cc1F)S(=O)(=O)c1cccc(Cl)c1 | selectivity ratio | > 51
CCN(c1c(F)cc(Cl)cc1F)S(=O)(=O)c1cc(Cl)ccc1Cl | selectivity ratio | > 12
CCN(c1ccc(F)cc1F)S(=O)(=O)c1cc(F)ccc1F | selectivity ratio | > 7
Cc1cc(Cl)ccc1N(CCF)S(=O)(=O)c1cc(Cl)ccc1Cl | selectivity ratio | > 9
Cc1ccccc1N(C(C)C)S(=O)(=O)c1cc(Cl)ccc1Cl | selectivity ratio | > 3
CCN(c1ccc(F)cc1)S(=O)(=O)c1cc(Cl)ccc1Cl | selectivity ratio | > 74
C#CCN(c1ccc(Cl)cc1C)S(=O)(=O)c1cc(Cl)ccc1Cl | selectivity ratio | > 42
C#CCN(c1ccccc1C)S(=O)(=O)c1cc(Cl)ccc1Cl | selectivity ratio | > 13

====

# Test system: A549
# experimental_protocol: Cytotoxicity against human A549 cells by MTT assay
# Type: cell-based
Attribute: CC10

smiles | CC10
C#CCN(c1ccccc1C)S(=O)(=O)c1cc(Cl)ccc1Cl | > 5 µM
CCN(c1ccc(CCN)cc1)S(=O)(=O)c1cc(Cl)ccc1Cl | > 25 µM
Cc1cc(Cl)ccc1N(CCO)S(=O)(=O)c1cc(Cl)ccc1Cl | > 5 µM
CCN(c1ccc(F)cc1F)S(=O)(=O)c1cc(Cl)ccc1Cl | > 5 µM
CCN(c1ccc(F)cc1F)S(=O)(=O)c1c(Cl)cccc1Cl | > 25 µM
CCN(c1ccccc1Cl)S(=O)(=O)c1cc(Cl)ccc1Cl | > 5 µM
CCOC(=O)Cc1ccc(N(CC)S(=O)(=O)c2cc(Cl)ccc2Cl)cc1 | > 5 µM
C#CCN(c1ccc(Cl)cc1C)S(=O)(=O)c1cc(Cl)ccc1Cl | > 5 µM
CCN(c1ccc(F)cc1F)S(=O)(=O)c1ccccc1Cl | > 25 µM
C#CCCC1(CCOC(=O)Cc2ccc(N(CC)S(=O)(=O)c3cc(Cl)ccc3Cl)cc2)N=N1 | > 25 µM
Cc1cc(Cl)ccc1N(CC1CC1)S(=O)(=O)c1cc(Cl)ccc1Cl | > 5 µM
CCN(c1ccc(F)cc1F)S(=O)(=O)c1ccc(Cl)c(Cl)c1 | > 25 µM
CCN(c1ccc(CC(=O)O)cc1)S(=O)(=O)c1cc(Cl)ccc1Cl | > 25 µM
O=S(=O)(c1cc(Cl)ccc1Cl)N1CCCc2cc(Cl)ccc21 | > 5 µM
CCN(c1ccc(CCO)cc1)S(=O)(=O)c1cc(Cl)ccc1Cl | > 25 µM
CCN(c1ccc(CCNC(C)=O)cc1)S(=O)(=O)c1cc(Cl)ccc1Cl | > 25 µM
CCN(c1c(C)cc(Cl)cc1Cl)S(=O)(=O)c1cc(Cl)ccc1Cl | > 5 µM
CCN(c1ccc(Cl)cc1F)S(=O)(=O)c1cc(Cl)ccc1Cl | > 5 µM
CCN(c1ccccc1C#N)S(=O)(=O)c1cc(Cl)ccc1Cl | > 5 µM
CCN(c1ccc(F)cc1F)S(=O)(=O)c1cc(Cl)cc(Cl)c1 | 25 µM
Cc1cc(Cl)ccc1N(CCF)S(=O)(=O)c1cc(Cl)ccc1Cl | > 5 µM
CCN(c1ccccc1C)S(=O)(=O)c1cc(Cl)ccc1Cl | > 25 µM
CCN(c1c(F)cc(Cl)cc1F)S(=O)(=O)c1cc(Cl)ccc1Cl | 0.025 µM
